measurement.description: Oral bioavailability in rat at 5 mg/kg
Type: ADME, organism-based
condition.context: in vivo
# label = Y if bioavailability >= 60% else N

- CC[C@H](C)[C@@H]1C(=O)N[C@H](C2Cc3ccccc3C2)C(=O)N1[C@@H](C(=O)N1CCOCC1)c1ccc(C)nc1C [EPELSIBAN]: N
- CCC(CC)[C@@H]1C(=O)N[C@H](C2Cc3ccccc3C2)C(=O)N1[C@@H](C(=O)N1CCOCC1)c1ccc(C)nc1: N
- CC[C@H](C)[C@@H]1C(=O)N[C@H](C2Cc3ccccc3C2)C(=O)N1[C@@H](C(=O)N(C)C)c1ccc(C)nc1C: Y
- CCC(CC)[C@@H]1C(=O)N[C@H](C2Cc3ccccc3C2)C(=O)N1[C@@H](C(=O)NC)c1ccc(C)nc1: N
- CC[C@H](C)[C@@H]1C(=O)N[C@H](C2Cc3ccccc3C2)C(=O)N1[C@@H](C(=O)N(C)C)c1ccc(C)[n+]([O-])c1: N
- Cc1ccc([C@H](C(=O)N2CCOCC2)N2C(=O)[C@@H](C3Cc4ccccc4C3)NC(=O)[C@H]2CC(C)(C)C)cn1: N
- CCC(CC)[C@@H]1C(=O)N[C@H](C2Cc3ccccc3C2)C(=O)N1[C@@H](C(=O)N1CCOCC1)c1ccc(C)nc1C: N
- CCC(CC)[C@@H]1C(=O)N[C@H](C2Cc3ccccc3C2)C(=O)N1[C@@H](C(=O)N(C)C)c1ccc(C)nc1: N
- CC[C@H](C)[C@@H]1C(=O)N[C@H](C2Cc3ccccc3C2)C(=O)N1[C@@H](C(=O)N(C)C)c1ccc(C)nc1: Y
- CC[C@H](C)[C@@H]1C(=O)N[C@H](C2Cc3ccccc3C2)C(=O)N1[C@@H](C(=O)N1CCOCC1)c1ccc(C)nc1: N
- CC[C@H](C)[C@@H]1C(=O)N[C@H](C2Cc3ccccc3C2)C(=O)N1[C@@H](C(=O)NC)c1cnc(C)cc1C: N
- CC[C@H](C)[C@@H]1C(=O)N[C@H](C2Cc3ccccc3C2)C(=O)N1[C@@H](C(=O)NC)c1ccc(C)nc1C: N
- Cc1ccc([C@H](C(=O)N(C)C)N2C(=O)[C@@H](C3Cc4ccccc4C3)NC(=O)[C@H]2CC(C)C)cn1: N
- CC[C@@H](C)[C@@H]1C(=O)N[C@H](C2Cc3ccccc3C2)C(=O)N1[C@@H](C(=O)N(C)C)c1ccc(C)nc1: Y
- COc1ccc([C@H](C(=O)N2CCOCC2)N2C(=O)[C@@H](C3Cc4ccccc4C3)NC(=O)[C@H]2CC(C)C)cn1: Y

// provenance: ChEMBL document CHEMBL2034824
